Experiment: Resistance to Poly (ADP-Ribose) Polymerase inhibitor: Gene Identification via Genome-wide siRNA Screen
Details: mouse BRCA2 R2336H ES cells, olaparib, CellTiter-Glo viability; stronger effect = higher value
Out of some 52,000 sequences screened, about 210 (0.4%) were called active. Shown is part of a subset that was picked to be rich in actives.
Field: label. Allowed values: criterion met (z-score < 0.2) or criterion not met (z-score >= 0.2).

Here's what some known entries look like.
GGGUUUAAUCAUGAUAGAATT against E130014J05Rik; criterion not met
GUCUCUCUUUUAACAUGCUTT against Ceacam13; criterion not met
GGUGAAAUAGCUAAAUCAUTT against Usp15; criterion met
CCAUCUAUGAUCCCAGAGCTT against Fbxw9; criterion not met
CGUGGGAUUUAAUGAUCAATT against Nid2; criterion not met

Here is the next item to consider.
Identify whether the sequence GAACCUUUUCCGUUUCGAGTT against Cebpb records z-score below 0.2. criterion not met

---

Test: Resistance to Poly (ADP-Ribose) Polymerase inhibitor: Gene Identification via Genome-wide siRNA Screen
Details: mouse BRCA2 R2336H ES cells, olaparib, CellTiter-Glo viability
In all, about 52,000 sequences went through this assay and about 210 (0.4%) were called active.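 How the source made its calls: active means gene whose silencing raises cell survival under the drug, median off-target-corrected z-score across its silencing RNAs 2 or more; inactive means the rest.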 Only a selection was taken, and actives are over-represented in it overall.
Respond only with the outcome that fits, drawn from YES (active), NO (inactive)

Here's what some known entries look like.
GCCAGAAACUAAUGAGAUCTT against 1110001E17Rik; YES
GGCCGAGUACAAACGUGGATT against AU019532; NO
CCUAAAUUCGGUUUGAAUCTT against Fath; YES
GGAACAUUACAAAAGCUCUTT against Slfn1; NO
GCCCUCAGGUGGUUCUUAATT against C030036P15Rik; NO

Here is the next item to consider.
Would you mind telling me which call this test gave GCAGGUGCCAACAUUAUUGTT against 0610039C21Rik ? NO

---

Assay: Resistance to Poly (ADP-Ribose) Polymerase inhibitor: Gene Identification via Genome-wide siRNA Screen
Details: mouse BRCA2 R2336H ES cells, olaparib, CellTiter-Glo viability; stronger effect = higher value
About 210 (0.4%) of roughly 52,000 sequences were called active. The full list was thinned out, with actives kept by preference.
Field: label. Allowed values: met (z-score < 0.5) or not met (z-score >= 0.5).

Identify whether the sequence CCCACUAAGAAACAAUCUATT against Gp1ba records z-score below 0.5. met

Identify whether the sequence GGAGAUGGAGAAGUAGAUUTT against Abcf2 records z-score below 0.5. met

Identify whether the sequence GGCUCCUUAAAGAUAUGUUTT against Nsmaf records z-score below 0.5. met

---

Experiment: Resistance to Poly (ADP-Ribose) Polymerase inhibitor: Gene Identification via Genome-wide siRNA Screen
Settings: mouse BRCA2 R2336H ES cells, olaparib, CellTiter-Glo viability
The campaign covered roughly 52,000 sequences. About 210 (0.4%) were called active.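 How the source made its calls: active means gene whose silencing raises cell survival under the drug, median off-target-corrected z-score across its silencing RNAs 2 or more; inactive means the rest.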 Shown is part of a subset that was picked to be rich in actives.
Respond only with the outcome that fits, drawn from true (active), false (inactive)

GGAGAACGAAAGGAUGAAATT against Rpusd4; false
GGGUUCCUCCUUUCACAGATT against Ppia; false
GGAUAUUCUUCCAGUCUUUTT against MGC118154; false
GGGAACAGCAUCUCUGUCATT against E130115E03Rik; false
GGCACCUAACGACUUCAACTT against Pygm; false
GGAUACAUUAAUUGUUUGGTT against AW011752; false

Here is the next item to consider.
Would you mind telling me which call this test gave CCAGUCCUACUUAGCAAAGTT against BC046404 ? false

---

Experiment: Resistance to Poly (ADP-Ribose) Polymerase inhibitor: Gene Identification via Genome-wide siRNA Screen
Details: mouse BRCA2 R2336H ES cells, olaparib, CellTiter-Glo viability; stronger effect = higher value
In all, about 52,000 sequences went through this assay and about 210 (0.4%) were called active. The entries come from a sample that favours actives as a whole.
Property measured: z-score

Worked examples, 3 sequences total:
GGGAGAAGAAGAUACACCATT against Usp47; 2.16 (active)
CCCUAAUAGAACUAAUGAATT against Kpnb1; -3.47 (inactive)
GGGAGUUUAUUCAAAAGUGTT against Nrbp; 0.522 (inactive)

Endpoint output: z-score of GGAUAUCAAAGACAAAGCATT against 3100002B05Rik . Value? 0.612 (inactive)

Endpoint output: z-score of GGAAGUUCAACACCUCCAGTT against BC023296 . Value? -0.673 (inactive)

Endpoint output: z-score of CGAUUUCAGCUUAAAGCACTT against Lmo3 . Value? 1.44 (inactive)

---

Assay: Resistance to Poly (ADP-Ribose) Polymerase inhibitor: Gene Identification via Genome-wide siRNA Screen
Details: mouse BRCA2 R2336H ES cells, olaparib, CellTiter-Glo viability
Among all 52,000 sequences or so, about 210 (0.4%) were called active.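 The calls were made as follows: active = gene whose silencing raises cell survival under the drug, median off-target-corrected z-score across its silencing RNAs 2 or more; inactive = the rest.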 The full list was thinned out, with actives kept by preference.
Respond only with the outcome that fits, drawn from yes (1) = active, no (0) = inactive

Here's what some known entries look like.
GGAGAGGAAUGGUGUGUUATT against 4931428D14Rik; no (0)
GGACUUUUACCAGUUCUCCTT against Ece2; no (0)
GCAACUAGCCUGUUCUAUCTT against AI325941; no (0)

Would you mind telling me which call this test gave GCCUCAAAACUUCUUGUUCTT against Mxd3 ? no (0)

Would you mind telling me which call this test gave GCUUACCUUGACCAACCUCTT against Chrng ? yes (1)

Would you mind telling me which call this test gave GGAACAGUCUGAAAUACACTT against Usp18 ? yes (1)

Would you mind telling me which call this test gave GUCUGUAUUCCUAGAUUCCTT against Olfr794 ? no (0)

Would you mind telling me which call this test gave GGGCUAUGUGCUCUUUUGUTT against Edg6 ? no (0)

Would you mind telling me which call this test gave CGUAAAACUCUUAGGCAUGTT against Npm1 ? yes (1)

Would you mind telling me which call this test gave UGAAGUCUAAUCAGAGCACTT against Olfr50 ? no (0)

Would you mind telling me which call this test gave CCCAUGUUCGAUGGGAAAGTT against Adprt1 ? yes (1)

Would you mind telling me which call this test gave GGAAAGAAUAUGAGAAUGCTT against Reck ? no (0)

---

Assay: Resistance to Poly (ADP-Ribose) Polymerase inhibitor: Gene Identification via Genome-wide siRNA Screen
Details: mouse BRCA2 R2336H ES cells, olaparib, CellTiter-Glo viability; stronger effect = higher value
Screen size: about 52,000 sequences; about 210 (0.4%) were called active. This excerpt belongs to a sample that is enriched for actives.
Field: label. Allowed values: Y (z-score < 0.6) or N (z-score >= 0.6).

Identify whether the sequence GGGUUAUACCAAGUCCAUUTT against Mapk1 records z-score below 0.6. N

Identify whether the sequence GGUAUCAAGUGCAGAAUGUTT against Slc37a1 records z-score below 0.6. N

Identify whether the sequence GGAUCCCACACUUUUCUGATT against Rxra records z-score below 0.6. N

Identify whether the sequence GCACCUUAAAAAUGAAGAUTT against D12Ertd551e records z-score below 0.6. Y

Identify whether the sequence GGUUGAAUAUUGAAUGGAATT against 9130422G05Rik records z-score below 0.6. Y

---

Assay: Resistance to Poly (ADP-Ribose) Polymerase inhibitor: Gene Identification via Genome-wide siRNA Screen
Conditions: mouse BRCA2 R2336H ES cells, olaparib, CellTiter-Glo viability; stronger effect = higher value
About 210 (0.4%) of roughly 52,000 sequences were called active. This is one part of a sample in which actives are shown more often than they occur.
just bin them by z-score: low-valued: < 0.02; mid-valued: ≥ 0.02 and < 0.7; high-valued: ≥ 0.7

Here's what some known entries look like.
GCUUGUGAUCGACUCUGCATT against Centb5; low-valued
CCUCAGAUUUCAACCAUAGTT against 2700087I09Rik; high-valued
CACUCUUGAUACAAAUGAGTT against Ifna6T; mid-valued

Bin? CGACAUGUAAAACUAUUGUTT against BC034097 mid-valued

Bin? CCUCGUUCCUAUCAUUAACTT against Sdccag8 high-valued

Bin? GGAUUGCUGUGCCUUAUGATT against 2010004A03Rik mid-valued

Bin? GGACUUUGAAGAGGACAAUTT against Dhx38 low-valued

Bin? GGAAGGAAGAGAAAAACAATT against D11Ertd730e low-valued

Bin? CCGGCAACAUGCGUGAAUUTT against Trpv4 low-valued

Bin? CCCACAGGGAUUUAUUUAUTT against Slc37a1 high-valued

---

Test: Resistance to Poly (ADP-Ribose) Polymerase inhibitor: Gene Identification via Genome-wide siRNA Screen
Conditions: mouse BRCA2 R2336H ES cells, olaparib, CellTiter-Glo viability; stronger effect = higher value
Hit rate of the full screen: of about 52,000 sequences, about 210 (0.4%) were called active. The entries come from a sample that favours actives as a whole.
Field: label. Allowed values: T (z-score < 0.8) or F (z-score >= 0.8).

Here's what some known entries look like.
GGAGAUGCCCAAUGUUUUCTT against Ehd1; T
GGAAAUUCAGCAUGGAGCCTT against Vgll4; T
GCCCGCUCUCGGAUUUUGATT against Htr1b; F
GCUCUCACACCCUUAUGUATT against Sdfr1; T
GCCUUUAUAGUCUUAAGCATT against 2810475A17Rik; T
GGUGGUUACAACCGAAGCATT against Fus; F
GCCAGAAUGGACUUGAGAATT against V1re6; T
GGUUUCUCUCUACGCUAUGTT against Nrp2; F

Identify whether the sequence CGGCAGGAUGAAUGAGAUCTT against Bccip records z-score below 0.8. T

Identify whether the sequence GGAUAAACUUCCAUCUUUCTT against Car14 records z-score below 0.8. F

Identify whether the sequence GGAAAUGCCUUCAGAAAUUTT against Slc9a3r1 records z-score below 0.8. F
